Test: NCI Yeast Anticancer Drug Screen. Data for the cln2 rad14 strain (AID 165);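 note: 0% = growth equal to vehicle treated cultures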
Conditions: S. cerevisiae cln2 rad14 strain, at 50.0 µM, hits give high values
This is part of a sample that, as a whole, favours compounds with a hit. Of some 79,000 tested, about 15% had one in any assay.
property: growth inhibition (%)
Report only the number, with the unit % understood.

IN: Tell me the measured growth inhibition of "CC(=O)CC(=O)NC1CCCC1" , please.
OUT: -3.5

IN: Tell me the measured growth inhibition of CC(=O)OC1COC(Cl)C(OC(C)=O)C1OC(C)=O (configuration not stated) , please.
OUT: 3.95

IN: Tell me the measured growth inhibition of CC1OC(c2c(Cl)cccc2[N+](=O)[O-])OC1C (configuration not stated) , please.
OUT: 0.5

IN: Tell me the measured growth inhibition of "COc1cc2c(c3c1/c(=N\N=c1/c4ccccc4n(C)c4c5c(cc(OC)c14)OC(C)(C)C=C5)c1ccccc1n3C)C=CC(C)(C)O2" , please.
OUT: 48

IN: Tell me the measured growth inhibition of "Brc1ccc(C=C2c3ccccc3-c3ccccc32)cc1" , please.
OUT: 6.85

IN: Tell me the measured growth inhibition of "O=C(O)CCc1nc2c(n1Cc1ccccc1)C(=O)c1ccccc1C2=O" , please.
OUT: 44.7

IN: Tell me the measured growth inhibition of "Nc1nnnn1C1CCCCC1" , please.
OUT: -8.65

IN: Tell me the measured growth inhibition of "CC#Cc1c(C#CC)c(OC)c2c(c1OC)C(=O)c1ccccc1C2=O" , please.
OUT: 3.3

IN: Tell me the measured growth inhibition of "CCOC(=O)NC(=S)Nc1nonc1-c1ccccc1" , please.
OUT: -9.65

IN: Tell me the measured growth inhibition of "O=C(NNC(=O)c1ccc(Cl)cc1Cl)c1ccc2ccccc2c1" , please.
OUT: 6

IN: Tell me the measured growth inhibition of "CC(=O)OCCOCNC(=S)N/N=C/c1ccc(Br)s1" , please.
OUT: 28.1

IN: Tell me the measured growth inhibition of "COc1c2ccoc2c(OC)c2oc(=O)ccc12" , please.
OUT: 17.2

---

Assay: NCI Yeast Anticancer Drug Screen. Data for the rad50 strain (AID 155);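 note: 0% = growth of vehicle-only cultures of the same strain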
Details: S. cerevisiae rad50 strain growth inhibition; at 50.0 µM; hits give high values
The panel holds about 79,000 compounds, 15% with a hit somewhere; the sample as a whole holds those more often.
property: growth inhibition (%)
Report only the number, with the unit % understood.

IN: Tell me the measured growth inhibition of "Cn1c(-c2ccc3c(c2)OCO3)cc(=O)c2ccccc21" , please.
OUT: -11.2

IN: Tell me the measured growth inhibition of "COC(=O)c1nc(N)nc(C(=O)OC)c1C(=O)c1ccco1" , please.
OUT: 3.95

IN: Tell me the measured growth inhibition of "CCOC(=O)/C(=C/O)NC(=O)c1ccccc1" , please.
OUT: -10.4

IN: Tell me the measured growth inhibition of "CC(C)(C)OC(=O)N/N=C(/N)Cc1ccc(Cl)cc1" , please.
OUT: -4.05

IN: Tell me the measured growth inhibition of "O=C(Nc1cc(Cl)c(I)cc1Cl)C(F)(F)F" , please.
OUT: 55.4

IN: Tell me the measured growth inhibition of "CC1(C)C(=NNC(=O)C[N+](C)(C)C)C(C)(C)C1=NNC(=O)C[N+](C)(C)C" , please.
OUT: -0.4
